# Test system: XBP1(u)-luciferase splicing reporter in HepG2 hepatoma cells
# assay.remarks: HepG2 XBP1 reporter assay (XBP1(u)-Luc)
# Type: cell-based
# run.conditions: Homo sapiens, 6 h, six hours after addition of compound
For each record, write down the corresponding IC50.

Would you mind telling me what IC50 value was observed for Cc1cc(N2CCCOC[C@H]2c2ccc(S(=O)(=O)C3CCC3)cc2Cl)nc(N)n1 [D-141] ?
≥ 5000 nM

Would you mind telling me what IC50 value was observed for COc1cc(C2COCCCN2c2cc(C)nc(N)n2)c(Cl)cc1N1CCCC1 [D-17] ?
600 to 2000 nM

Would you mind telling me what IC50 value was observed for CCOc1cc(C2COCCCN2c2cc(C)nc(N)n2)c(Cl)cc1O [D-21] ?
< 600 nM

Would you mind telling me what IC50 value was observed for Cc1cc(N2CCCOCC2c2ccc(C3CCN(C4COC4)CC3)cc2Cl)nc(N)n1 [D-70] ?
2000 to 5000 nM

Would you mind telling me what IC50 value was observed for Cc1cc(N2CCCOC[C@H]2c2cc(CN)c(Cl)cc2C)nc(N)n1 [D-174] ?
≥ 5000 nM

Would you mind telling me what IC50 value was observed for Cc1cc(N2CCCOC[C@@H]2c2cc3c(cc2Cl)NC[C@@](C)(C(=O)NCCO)O3)nc(N)n1 [D-133] ?
< 600 nM

Would you mind telling me what IC50 value was observed for Cc1cc(N2CCCOC[C@@H]2c2cc(O)c(C(=O)NCCO)cc2Cl)nc(N)n1 [D-130] ?
≥ 5000 nM

Would you mind telling me what IC50 value was observed for Cc1cc(N2CCCOC[C@@H]2c2ccc(CS(C)(=O)=O)cc2OC(F)(F)F)nc(N)n1 [D-41] ?
< 600 nM

Would you mind telling me what IC50 value was observed for COc1cc(F)c(F)cc1[C@@H]1COCCCN1c1cc(C)nc(N)n1 [D-5] ?
600 to 2000 nM
